test system: canarygrass (Phalaris minor); assay: Test C postemergence: canarygrass; type: in vivo; settings: 125 g ai/ha, scale 0 to 100, 0 no effect, 100 complete control
The molecules listed here are annotated with their Plant response rating, Canarygrass.
I'd appreciate a reply containing only the number, no unit.

CCOc1nn(-c2ccc(F)cc2)nc1Cc1ccnc(C(F)(F)F)c1 | 90
Cc1nn(-c2ccnc(Cl)c2)nc1Cc1ccnc(C(F)(F)F)c1 | 50
Cc1nn(-c2ccc(C(F)(F)F)cn2)nc1Cc1cccc(C(F)(F)F)c1 | 70
FC(F)(F)COc1nn(-c2ccc(C(F)(F)F)cc2)nc1Cc1ccnc(C(F)(F)F)c1 | 85

Read the next record carefully.
Asked: For the molecule FC(F)Oc1nn(-c2ccc(C(F)(F)F)cc2)nc1Cc1ccnc(C(F)(F)F)c1 , give its measured Plant response rating, Canarygrass value.
Given back: 90

###

system: blackgrass (Alopecurus myosuroides); test: Test C pre-/postemergence: blackgrass; format: in vivo; settings: Postemergence, 250 g ai/ha; scale 0 to 100
Here, each record is paired with measured Plant response rating, Blackgrass data.

These solved cases illustrate the format of a correct answer.
Cc1nn(-c2ccc(F)c(C(F)(F)F)c2)nc1Cc1ccnc(C(F)(F)F)c1 [Compound 156] | 85
CCOc1nn(-c2ccc(F)cc2)nc1Cc1ccnc(C(F)(F)F)c1 [Compound 196] | 80
Cc1nn(-c2ccc(C(F)(F)F)c(F)c2)nc1Oc1ccnc(C(F)(F)F)c1 [Compound 148] | 80
FC(F)Oc1nn(-c2ccc(C(F)(F)F)cc2)nc1Cc1ccnc(C(F)(F)F)c1 [Compound 26] | 90

Alright, here's another molecule for you.
Asked: Give Plant response rating, Blackgrass for FC(F)(F)COc1nn(-c2ccc(C(F)(F)F)cc2)nc1Cc1ccnc(C(F)(F)F)c1 [Compound 14]
Given back: 85

###

System: blackgrass (Alopecurus myosuroides)
Assay: Test D pre-/postemergence: blackgrass
Type: in vivo
Details: Postemergence, 31 g ai/ha; scale 0 to 100 (0 no effect, 100 complete control)
Description: […] Treated plants and controls were maintained in a controlled growth environment for 14 to 21 days after which time all species were compared to controls and visually evaluated. […]
ASSAY_METRIC: Plant response rating: Blackgrass
A bare number is all that is needed in reply.

Known results for compounds:
COc1nn(-c2ccc(C(F)(F)F)cc2)nc1Cc1ccnc(C(F)F)c1 [Compound 138] | 50
COc1nn(-c2ccc(C(F)(F)F)cc2)nc1Cc1ccnc(C(F)(F)F)c1 [Compound 15] | 15

Asked: State its Plant response rating: Blackgrass for this compound: Cc1nn(-c2ccc(F)c(C(F)(F)F)c2)nc1Cc1ccnc(C(F)(F)F)c1 [Compound 156]
Given back: 15

Asked: Quote Plant response rating: Blackgrass reported for Cc1nn(-c2ccc(C(F)(F)F)cn2)nc1Cc1cccc(C(F)(F)F)c1 [Compound 106] please.
Given back: 10

###

tested on: buckwheat, wild (wild buckwheat, Polygonum convolvulus); assay: Test D pre-/postemergence: buckwheat, wild; format: in vivo; settings: Postemergence, 125 g ai/ha; scale 0 to 100, 0 no effect, 100 complete control
ASSAY_METRIC: Plant response rating: Buckwheat, Wild
Form field (numeric): enter value without unit.

Cc1nn(-c2ccc(C(F)(F)F)cn2)nc1Cc1cccc(C(F)(F)F)c1 | 10

Asked: Find the measured Plant response rating: Buckwheat, Wild of CCc1nn(-c2ccc(C(F)(F)F)cc2)nc1Cc1ccnc(C(F)(F)F)c1 and report it.
Given back: 75

Asked: Consider the molecule Cc1nn(-c2ccc(C(F)(F)F)cn2)nc1Oc1ccnc(C(F)(F)F)c1 and give its recorded Plant response rating: Buckwheat, Wild.
Given back: 40

Asked: Look up Plant response rating: Buckwheat, Wild of CCOc1nn(-c2ccc(F)cc2)nc1Cc1ccnc(C(F)(F)F)c1 and report it.
Given back: 95

Asked: Quote Plant response rating: Buckwheat, Wild reported for Cc1nn(-c2ccc(C(F)(F)F)c(F)c2)nc1Oc1ccnc(C(F)(F)F)c1 please.
Given back: 70

Asked: Specify Plant response rating: Buckwheat, Wild for COc1nn(-c2ccc(C(F)(F)F)cc2)nc1Cc1ccnc(C(F)F)c1 and stop.
Given back: 80
